Give measured GI50 for each item. Keep answers brief.
System: HOP-62
ASSAY_EXPLANATION: NCI tumour cell line growth inhibition, 48 h
Calls of active or inactive are those of the source. No stated cut-off is given here; in the data, active = GI50 up to about 1.1 µM and inactive = higher.

Some molecules with recorded GI50:
{"columns": ["MOLECULE", "GI50"],
 "data": [
  ["O=C1CC2(c3ccccc3)ON=C(c3ccccc3)N2c2ccccc2N1 (stereo unspecified)", "78.7 µM (inactive)"],
  ["CCCCCCCCOCC(O)CO (stereo unspecified)", "> 100 µM (inactive)"],
  ["CC(C)=CCOc1cc(NC(=S)c2ccoc2C)ccc1Cl [UC 781]", "84.1 µM (inactive)"]
]}

Go through the items and report each one's GI50.
1. Fc1ccc(OCc2ccc3nc(-c4ccccc4)c(Cl)nc3c2)cc1
2. CCC(C)C(=O)O[C@H]1C(=O)O[C@@H]2C[C@H]3C(C)=CC(=O)[C@@H](O)[C@]3(C)[C@H]3[C@@H](O)[C@H](O)[C@@]4(C)OC[C@]32[C@@H]14 (stereo partly specified)
3. CN(C)c1ccc(C=c2c3ccccc3n3c2cc(-c2ccc(Cl)cc2)[n+]3C)cc1

-- reply
["16.3 µM (inactive)", "< 0.0221 µM (active)", "0.406 µM (active)"]

---

System: MOLT-4
ASSAY_EXPLANATION: NCI tumour cell line growth inhibition, 48 h
Active and inactive are the calls of the source. No stated cut-off is given here; in the data, active = GI50 up to about 1.1 µM and inactive = higher.
Valid outcomes are listed here; reply with one: active, inactive

Check out these entries, answers already filled in.
{"columns": ["MOLECULE", "ASSAYED_TARGET", "GROUP"],
 "data": [
  ["CCC(Oc1ccc(OC)c2ccccc(=O)c12)C(=O)O (stereo not given)", "MOLT-4", "inactive"],
  ["CCCCN(CC)C(=O)C1=C(C)NC(C)=C(C(=O)N(CC)CCCC)C1", "MOLT-4", "inactive"]
]}

Please examine the following record next.
-- ask Outcome? CC(=O)Oc1ccc(C(c2ccc(OC(C)=O)cc2)c2ccccn2)cc1
-- reply inactive

---

Tested on: DU-145
ASSAY_EXPLANATION: NCI tumour cell line growth inhibition, 48 h
Activity calls are given as the source filed them. No stated cut-off is given here; in the data, active = GI50 up to about 1.1 µM and inactive = higher.
PROPERTY_MEASURED: GI50

Examples with answers:
{"columns": ["COMPOUND", "ASSAYED_TARGET", "PROPERTY_MEASURED", "OBSERVED_RESULT"],
 "data": [
  ["NC(=O)c1nnn(-c2ccccc2)c1O", "DU-145", "GI50", "> 100 µM (inactive)"],
  ["O=c1cc2oc3ccc4ccccc4c3cc-2c(=O)[nH]1", "DU-145", "GI50", "13.6 µM (inactive)"],
  ["CC(C)C(Cl)CCC(C)(Cl)C(=O)CBr (configuration not stated)", "DU-145", "GI50", "17.8 µM (inactive)"]
]}

// batch mode: one GI50 value per listed entry
1. O=C1c2c(ccc3c2CCC3)CC1Cc1ccc2c(c1)CCC2 (configuration not stated)
2. C=CCc1cccc2cc(C(=O)Nc3ccc(C)cc3)c(=N)oc12
3. O=C(/C=C/c1ccc(O)cc1)NCCc1ccc(O)cc1
4. C=C(C)CC1=C(C(=S)NCCO[Si](C)(C)C(C)(C)C)C(OCC)(OCC)C1=O

-- reply
27.3 µM (inactive)
> 100 µM (inactive)
12 µM (inactive)
23 µM (inactive)

Data credit: ChEMBL document CHEMBL1201862
